- experiment: Inhibition of HIV integrase-mediated strand transfer activity using precleaved 19T duplex oligonucleotide after 2 hrs
- Design: species or system Human immunodeficiency virus
metricName: pIC50
As a rule, pIC50 stands for the negative log10 of the concentration, concentration in M.

Ask: # lookup: pIC50 of CCc1c(CN2CCN(C(=O)c3ccc(O)c(O)c3O)CC2)c(CC)c(CN2CCN(C(=O)c3ccc(O)c(O)c3O)CC2)c(CC)c1CN1CCN(C(=O)c2ccc(O)c(O)c2O)CC1
Result: 5.25

Ask: Please report the recorded pIC50 for CCc1c(CNC(=O)c2ccc(O)c(O)c2O)c(CC)c(CNC(=O)c2ccc(O)c(O)c2O)c(CC)c1CNC(=O)c1ccc(O)c(O)c1O .
Result: 4.96

###

- System: CCRF-CEM
- experiment: Cytotoxicity against human CD4+ T-lymphocyte CEM cells
- Type: cell-based
So I've got a bunch of compounds here, and I need their CC50 values.
Dear colleague, please return just the value in µM, with no unit written.

Ask: Form entry - test system: CCRF-CEM; read-out: CC50; compound: CCc1c(CNC(=O)c2ccc(O)c(O)c2O)c(CC)c(CNC(=O)[C@H]2C[C@@H](C(=O)NCc3c(CC)c(CNC(=O)c4ccc(O)c(O)c4O)c(CC)c(CNC(=O)c4ccc(O)c(O)c4O)c3CC)C[C@@H](C(=O)NCc3c(CC)c(CNC(=O)c4ccc(O)c(O)c4O)c(CC)c(CNC(=O)c4ccc(O)c(O)c4O)c3CC)C2)c(CC)c1CNC(=O)c1ccc(O)c(O)c1O
Result: 25

Ask: Give the reported CC50 for CCc1c(CNCCNC(=O)c2ccc(O)c(O)c2O)c(CC)c(CNCCNC(=O)c2ccc(O)c(O)c2O)c(CC)c1CNCCNC(=O)c1ccc(O)c(O)c1O (system: CCRF-CEM).
Result: 117

Ask: Give CCRF-CEM CC50 for CCc1c(CNC(=O)c2c(O)cc(O)cc2O)c(CC)c(CNC(=O)c2c(O)cc(O)cc2O)c(CC)c1CNC(=O)c1c(O)cc(O)cc1O
Result: 112

Ask: Lab note: need CC50 with CCRF-CEM for entry CCc1c(CNC(=O)CCc2ccc(O)c(O)c2)c(CC)c(CNC(=O)CCc2ccc(O)c(O)c2)c(CC)c1CNC(=O)CCc1ccc(O)c(O)c1 , please look it up.
Result: 22

###

- System: CCRF-CEM
- experiment: Cytotoxicity against human CD4+ T-lymphocyte CEM cells
- Format: cell-based
metricName: CC50

Ask: Using the record for CCc1c(CNC(=O)c2cccc(O)c2O)c(CC)c(CNC(=O)c2cccc(O)c2O)c(CC)c1CNC(=O)c1cccc(O)c1O , report its CC50.
Result: 5 µM

Ask: Value lookup for CC50; key = CCc1c(CNC(=O)c2ccc[nH]2)c(CC)c(CNC(=O)c2ccc[nH]2)c(CC)c1CNC(=O)c1ccc[nH]1
Result: > 10 µM

Ask: Form field: reported CC50 of CCc1c(CN2CCN(C(=O)c3ccc(O)c(O)c3O)CC2)c(CC)c(CN2CCN(C(=O)c3ccc(O)c(O)c3O)CC2)c(CC)c1CN1CCN(C(=O)c2ccc(O)c(O)c2O)CC1
Result: 36 µM

Ask: Return reported CC50; argument: CCc1c(CNC(=O)c2ccc(N)nc2)c(CC)c(CNC(=O)c2ccc(N)nc2)c(CC)c1CNC(=O)c1ccc(N)nc1
Result: > 250 µM

Ask: Any idea what its CC50 is? The compound is CCc1c(CNC(=O)c2ccc(O)cc2O)c(CC)c(CNC(=O)c2ccc(O)cc2O)c(CC)c1CNC(=O)c1ccc(O)cc1O
Result: 28 µM

Ask: Name the recorded CC50 for CCc1c(CNC(=O)C2=C[C@H](O)[C@H](O)[C@@H](O)C2)c(CC)c(CNC(=O)C2=C[C@H](O)[C@H](O)[C@@H](O)C2)c(CC)c1CNC(=O)C1=C[C@H](O)[C@H](O)[C@@H](O)C1 .
Result: > 250 µM

###

- Test system: Human immunodeficiency virus 2
- experiment: Antiviral activity against HIV2 ROD infected in human CD4+ T-lymphocyte CEM cells assessed as inhibition of virus-induced cytopathicity after 4 to 5 days by microscopic analysis
- Type: functional, organism-based
- conditionNotes: Human immunodeficiency virus 2, ISOLATE ROD, CCRF-CEM
Please provide measured EC50 for the entries that follow.

Ask: Need EC50, item CCc1c(CNCCCCNC(=O)c2ccc(O)c(O)c2O)c(CC)c(CNCCCCNC(=O)c2ccc(O)c(O)c2O)c(CC)c1CNCCCCNC(=O)c1ccc(O)c(O)c1O
Result: > 10 µM

Ask: Recorded EC50 for CCc1c(CNC(=O)CCc2ccc(O)c(O)c2)c(CC)c(CNC(=O)CCc2ccc(O)c(O)c2)c(CC)c1CNC(=O)CCc1ccc(O)c(O)c1 , please?
Result: > 10 µM

Ask: I would be grateful if you could share the reported EC50 for CCc1c(CNC(=O)c2ccc(N)nc2)c(CC)c(CNC(=O)c2ccc(N)nc2)c(CC)c1CNC(=O)c1ccc(N)nc1 .
Result: > 250 µM

Ask: Sample CCc1c(CNC(=O)c2ccc[nH]2)c(CC)c(CNC(=O)c2ccc[nH]2)c(CC)c1CNC(=O)c1ccc[nH]1 — what was its EC50?
Result: > 10 µM

Ask: Give its EC50 value. Item: CCc1c(CNC(=O)c2ccc(O)c(O)c2O)c(CC)c(CNC(=O)c2ccc(O)c(O)c2O)c(CC)c1CNC(=O)c1ccc(O)c(O)c1O
Result: 41 µM

Ask: Fill blank: measured EC50 of the compound CCc1c(CNC(=O)c2cc(O)c(O)c(O)c2)c(CC)c(CNC(=O)c2cc(O)c(O)c(O)c2)c(CC)c1CNC(=O)c1cc(O)c(O)c(O)c1 is ____.
Result: > 10 µM

Ask: Which EC50 is listed for CCc1c(CNC(=O)C2=C[C@H](O)[C@H](O)[C@@H](O)C2)c(CC)c(CNC(=O)C2=C[C@H](O)[C@H](O)[C@@H](O)C2)c(CC)c1CNC(=O)C1=C[C@H](O)[C@H](O)[C@@H](O)C1 ?
Result: > 250 µM

Ask: Data request, read-out EC50, for CCc1c(CN2CCN(C(=O)c3ccc(O)c(O)c3O)CC2)c(CC)c(CN2CCN(C(=O)c3ccc(O)c(O)c3O)CC2)c(CC)c1CN1CCN(C(=O)c2ccc(O)c(O)c2O)CC1
Result: > 10 µM

Ask: Looking for the measured EC50 of CCc1c(CNC(=O)c2c(O)cc(O)cc2O)c(CC)c(CNC(=O)c2c(O)cc(O)cc2O)c(CC)c1CNC(=O)c1c(O)cc(O)cc1O , can you help?
Result: > 50 µM

Ask: What value of EC50 has been reported for the following compound? CCc1c(CNC(=O)C2C[C@H](O)C(O)[C@@H](O)C2)c(CC)c(CNC(=O)C2C[C@H](O)C(O)[C@@H](O)C2)c(CC)c1CNC(=O)C1C[C@H](O)C(O)[C@@H](O)C1 (some centres not stated)
Result: > 250 µM

Ask: EC50 lookup needed for CCc1c(CNC(=O)c2ccc(O)c(O)c2O)c(CC)c(CNC(=O)[C@H]2C[C@@H](C(=O)NCc3c(CC)c(CNC(=O)c4ccc(O)c(O)c4O)c(CC)c(CNC(=O)c4ccc(O)c(O)c4O)c3CC)C[C@@H](C(=O)NCc3c(CC)c(CNC(=O)c4ccc(O)c(O)c4O)c(CC)c(CNC(=O)c4ccc(O)c(O)c4O)c3CC)C2)c(CC)c1CNC(=O)c1ccc(O)c(O)c1O , thanks.
Result: > 10 µM

Ask: Endpoint output: EC50 of CCc1c(CNC(=O)c2ccc(O)cc2O)c(CC)c(CNC(=O)c2ccc(O)cc2O)c(CC)c1CNC(=O)c1ccc(O)cc1O . Value?
Result: > 4 µM
